Ref: ChEMBL document CHEMBL3526133

target.system: CYP1A2 (Homo sapiens)
Sequence (P05177 whole entry): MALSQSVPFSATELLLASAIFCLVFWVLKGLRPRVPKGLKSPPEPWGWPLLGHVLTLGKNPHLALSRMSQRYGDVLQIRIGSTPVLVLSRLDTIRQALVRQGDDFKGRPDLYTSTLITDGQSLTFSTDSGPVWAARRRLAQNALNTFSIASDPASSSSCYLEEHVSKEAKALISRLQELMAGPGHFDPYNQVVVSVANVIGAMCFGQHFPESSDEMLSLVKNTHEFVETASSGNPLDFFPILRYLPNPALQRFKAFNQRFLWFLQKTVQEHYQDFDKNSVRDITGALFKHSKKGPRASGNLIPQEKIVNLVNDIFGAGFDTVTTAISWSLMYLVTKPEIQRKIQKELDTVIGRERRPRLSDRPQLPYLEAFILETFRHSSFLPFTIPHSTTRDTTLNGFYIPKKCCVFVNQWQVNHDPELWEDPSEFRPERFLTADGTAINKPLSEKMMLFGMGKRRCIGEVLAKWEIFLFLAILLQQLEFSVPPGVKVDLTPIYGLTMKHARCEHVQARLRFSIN
measurement.description: Inhibition of CYP1A2-mediated phenacetin metabolite formation in human liver microsomes at 0.3 uM after 8 mins by LC-MS/MS analysis relative to control
Format: ADME
condition.parameters: probe phenacetin (metabolite formation)
measured.endpoint: inhibition at 8 min, 0.3 µM (%)
Give a bare numeral; the unit % is implied.

In: What measured inhibition at 8 min, 0.3 µM goes with COc1ccc(CCN2CCC(Nc3nc4ccccc4n3Cc3ccc(F)cc3)CC2)cc1 ?
Out: -0.6

* * *

target.system: CYP2C19 (Homo sapiens, UniProt P33261)
Sequence (P33261 whole entry): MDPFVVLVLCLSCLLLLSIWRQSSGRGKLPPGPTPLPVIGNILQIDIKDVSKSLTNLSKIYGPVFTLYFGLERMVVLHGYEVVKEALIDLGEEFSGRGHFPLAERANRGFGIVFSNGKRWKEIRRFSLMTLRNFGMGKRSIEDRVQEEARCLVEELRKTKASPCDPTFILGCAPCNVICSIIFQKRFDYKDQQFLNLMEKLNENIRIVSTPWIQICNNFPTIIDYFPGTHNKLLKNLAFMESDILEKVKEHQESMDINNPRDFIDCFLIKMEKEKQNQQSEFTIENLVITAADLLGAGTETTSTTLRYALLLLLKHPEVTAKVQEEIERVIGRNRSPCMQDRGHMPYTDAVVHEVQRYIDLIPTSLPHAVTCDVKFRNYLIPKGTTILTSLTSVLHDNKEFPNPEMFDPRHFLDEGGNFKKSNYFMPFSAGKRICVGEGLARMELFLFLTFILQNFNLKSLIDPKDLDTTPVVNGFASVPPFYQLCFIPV
measurement.description: Inhibition of CYP2C19-mediated S-mephenytoin metabolite formation in human liver microsomes at 0.3 uM after 8 mins by LC-MS/MS analysis relative to control
Type: ADME
condition.parameters: probe S-mephenytoin (metabolite formation)
measured.endpoint: inhibition at 8 min, 0.3 µM
Output should be the measured figure followed by the unit it is expressed in.

In: What measured inhibition at 8 min, 0.3 µM goes with COc1ccc(CCN2CCC(Nc3nc4ccccc4n3Cc3ccc(F)cc3)CC2)cc1 ?
Out: 6%

* * *

target.system: CYP2C8 (Homo sapiens, UniProt P10632)
Sequence (P10632 whole entry): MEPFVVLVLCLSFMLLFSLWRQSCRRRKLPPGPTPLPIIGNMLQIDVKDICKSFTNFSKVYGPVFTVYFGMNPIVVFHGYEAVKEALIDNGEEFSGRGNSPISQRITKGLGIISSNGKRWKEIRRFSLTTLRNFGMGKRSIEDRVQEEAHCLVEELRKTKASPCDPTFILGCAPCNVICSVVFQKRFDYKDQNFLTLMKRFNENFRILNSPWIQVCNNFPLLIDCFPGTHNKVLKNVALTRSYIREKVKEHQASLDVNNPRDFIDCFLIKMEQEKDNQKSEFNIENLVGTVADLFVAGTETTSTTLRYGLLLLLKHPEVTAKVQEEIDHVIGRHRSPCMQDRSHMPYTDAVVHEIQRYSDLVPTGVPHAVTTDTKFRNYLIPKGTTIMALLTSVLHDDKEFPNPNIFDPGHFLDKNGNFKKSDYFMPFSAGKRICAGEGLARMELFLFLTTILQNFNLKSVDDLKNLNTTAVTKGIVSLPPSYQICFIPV
measurement.description: Inhibition of CYP2C8-mediated paclitaxel metabolite formation in human liver microsomes at 0.3 uM after 8 mins by LC-MS/MS analysis relative to control
Format: ADME
condition.parameters: probe paclitaxel (metabolite formation)
measured.endpoint: inhibition at 8 min, 0.3 µM
Output should be the measured figure followed by the unit it is expressed in.

In: What measured inhibition at 8 min, 0.3 µM goes with COc1ccc(CCN2CCC(Nc3nc4ccccc4n3Cc3ccc(F)cc3)CC2)cc1 ?
Out: 1.1%

* * *

target.system: UniProtKB P08684
Sequence (P08684 whole entry): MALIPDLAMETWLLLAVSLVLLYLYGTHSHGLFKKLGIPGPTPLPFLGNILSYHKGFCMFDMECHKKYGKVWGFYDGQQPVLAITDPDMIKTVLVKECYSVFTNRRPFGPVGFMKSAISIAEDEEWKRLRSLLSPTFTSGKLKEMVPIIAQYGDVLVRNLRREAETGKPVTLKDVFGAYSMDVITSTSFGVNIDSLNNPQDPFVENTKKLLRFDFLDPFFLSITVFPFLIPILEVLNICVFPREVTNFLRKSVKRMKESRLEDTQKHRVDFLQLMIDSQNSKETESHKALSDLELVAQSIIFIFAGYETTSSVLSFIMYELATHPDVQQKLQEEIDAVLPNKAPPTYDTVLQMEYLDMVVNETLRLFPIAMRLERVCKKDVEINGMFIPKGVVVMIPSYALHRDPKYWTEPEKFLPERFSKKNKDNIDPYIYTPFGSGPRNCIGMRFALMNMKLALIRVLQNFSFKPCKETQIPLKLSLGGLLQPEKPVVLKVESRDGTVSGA
measurement.description: Inhibition of CYP3A4-mediated midazolam metabolite formation in human liver microsomes at 0.3 uM after 8 mins by LC-MS/MS analysis relative to control
Type: ADME
condition.parameters: probe midazolam (metabolite formation)
measured.endpoint: inhibition at 8 min, 0.3 µM (%)
Give a bare numeral; the unit % is implied.

In: What measured inhibition at 8 min, 0.3 µM goes with COc1ccc(CCN2CCC(Nc3nc4ccccc4n3Cc3ccc(F)cc3)CC2)cc1 ?
Out: 20.3

* * *

target.system: CYP2J2 (Homo sapiens)
Sequence (P51589 whole entry): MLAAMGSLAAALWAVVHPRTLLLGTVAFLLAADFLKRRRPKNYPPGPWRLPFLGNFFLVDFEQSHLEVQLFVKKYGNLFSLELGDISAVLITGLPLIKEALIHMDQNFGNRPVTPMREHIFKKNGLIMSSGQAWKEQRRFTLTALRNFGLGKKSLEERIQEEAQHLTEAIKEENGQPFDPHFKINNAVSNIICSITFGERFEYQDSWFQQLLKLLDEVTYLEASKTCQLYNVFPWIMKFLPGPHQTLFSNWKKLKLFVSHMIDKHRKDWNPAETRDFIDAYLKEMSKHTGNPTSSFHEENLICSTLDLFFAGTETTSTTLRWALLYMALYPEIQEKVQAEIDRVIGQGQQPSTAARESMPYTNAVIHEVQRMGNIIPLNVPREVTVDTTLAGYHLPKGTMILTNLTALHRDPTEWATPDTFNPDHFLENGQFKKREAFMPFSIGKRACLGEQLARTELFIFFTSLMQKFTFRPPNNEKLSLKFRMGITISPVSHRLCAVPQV
measurement.description: in vitro
condition.parameters: recombinant CYP2J2, probe astemizole (O-demethylation)
Entries and their activity at 5 min, 30 µM values follow.
Output should be the measured figure followed by the unit it is expressed in.

Solved entries (count: 5):
O[C@@H](c1cc(C(F)(F)F)nc2c(C(F)(F)F)cccc12)[C@H]1CCCCN1 (relative stereo) [(S,R)-MEFLOQUINE] | 44.6%
Cc1ccccc1C(OCCN(C)C)c1ccccc1 (stereo not given) [ORPHENADRINE] | 102%
CCN(CC)CCOc1ccc(C(=C(Cl)c2ccccc2)c2ccccc2)cc1 [CLOMIPHENE] | 109%
COCCCC/C(=N\OCCN)c1ccc(C(F)(F)F)cc1 [FLUVOXAMINE] | 54.4%
O=c1[nH]c2ccccc2n1CCCN1CCC(n2c(=O)[nH]c3cc(Cl)ccc32)CC1 [DOMPERIDONE] | 50.5%

In: What measured activity at 5 min, 30 µM goes with O=c1c(O)c(-c2ccc(O)c(O)c2)oc2cc(O)cc(O)c12 [QUERCETIN] ?
Out: 44.7%

In: Check COC(=O)C1=C(C)NC(C)=C(C(=O)OC(C)C)C1c1cccc2nonc12 (stereo not given) [ISRADIPINE] too.
Out: 13.6%

In: Check Clc1ccc(COC(Cn2ccnc2)c2ccc(Cl)cc2Cl)c(Cl)c1 (stereo not given) [MICONAZOLE] too.
Out: 10.1%

In: Check CCOC(=O)[C@H](CCc1ccccc1)N[C@@H](C)C(=O)N1Cc2ccccc2C[C@H]1C(=O)O too.
Out: 64.1%

In: Check COc1ccc(CCN(C)CCCC(C#N)(c2ccc(OC)c(OC)c2)C(C)C)cc1OC (stereo not given) too.
Out: 69.1%

In: Check CCC(=O)C(CC(C)N(C)C)(c1ccccc1)c1ccccc1 (stereo not given) [METHADONE] too.
Out: 123%

In: Check Clc1ccccc1C(c1ccccc1)(c1ccccc1)n1ccnc1 [CLOTRIMAZOLE] too.
Out: 5.6%

In: Check CC[C@H](C)C(=O)O[C@H]1C[C@@H](C)C=C2C=C[C@H](C)[C@H](CC[C@@H]3C[C@@H](O)CC(=O)O3)[C@H]21 [LOVASTATIN] too.
Out: 13.6%

In: Check COc1ccc2[nH]c([S+]([O-])Cc3ncc(C)c(OC)c3C)nc2c1 (stereo not given) [OMEPRAZOLE] too.
Out: 70.5%

In: Check Cc1c(OCC(F)(F)F)ccnc1C[S+]([O-])c1nc2ccccc2[nH]1 (stereo not given) [LANSOPRAZOLE] too.
Out: 71.1%

* * *

target.system: UniProtKB P10632
measurement.description: in vitro
condition.parameters: human liver microsomes, probe paclitaxel (metabolite formation)
measured.endpoint: inhibition at 8 min, 5 µM
Output should be the measured figure followed by the unit it is expressed in.

In: Return inhibition at 8 min, 5 µM measured with UniProtKB P10632 given this compound: CCCCc1oc2ccccc2c1C(=O)c1cc(I)c(OCCN(CC)CC)c(I)c1
Out: 32.7%

* * *

target.system: CYP2J2 (Homo sapiens, UniProt P51589)
measurement.description: in vitro
condition.parameters: recombinant enzyme
Outcome label depends on activity at 5 min, 30 µM relative to 40%: at/above gives y, below gives n.

CN(C)CCC=C1c2ccccc2C=Cc2ccccc21 | y
CNCCC=C1c2ccccc2CCc2ccccc21 | y
CNCCC(Oc1ccc(C(F)(F)F)cc1)c1ccccc1 (stereo unspecified) | y
CCOC(=O)N1CCC(=C2c3ccc(Cl)cc3CCc3cccnc32)CC1 | n

Would you kindly look at the next entry?
In: Reported activity at 5 min, 30 µM at or above 40%? COC(=O)C1=C(C)NC(C)=C(C(=O)OCCN(C)Cc2ccccc2)C1c1cccc([N+](=O)[O-])c1 (stereo unspecified)
Out: n
